measuredOn: AChE (Homo sapiens, UniProt P22303)
Construct: purchased Sigma Inc
Sequence (P22303 32-614): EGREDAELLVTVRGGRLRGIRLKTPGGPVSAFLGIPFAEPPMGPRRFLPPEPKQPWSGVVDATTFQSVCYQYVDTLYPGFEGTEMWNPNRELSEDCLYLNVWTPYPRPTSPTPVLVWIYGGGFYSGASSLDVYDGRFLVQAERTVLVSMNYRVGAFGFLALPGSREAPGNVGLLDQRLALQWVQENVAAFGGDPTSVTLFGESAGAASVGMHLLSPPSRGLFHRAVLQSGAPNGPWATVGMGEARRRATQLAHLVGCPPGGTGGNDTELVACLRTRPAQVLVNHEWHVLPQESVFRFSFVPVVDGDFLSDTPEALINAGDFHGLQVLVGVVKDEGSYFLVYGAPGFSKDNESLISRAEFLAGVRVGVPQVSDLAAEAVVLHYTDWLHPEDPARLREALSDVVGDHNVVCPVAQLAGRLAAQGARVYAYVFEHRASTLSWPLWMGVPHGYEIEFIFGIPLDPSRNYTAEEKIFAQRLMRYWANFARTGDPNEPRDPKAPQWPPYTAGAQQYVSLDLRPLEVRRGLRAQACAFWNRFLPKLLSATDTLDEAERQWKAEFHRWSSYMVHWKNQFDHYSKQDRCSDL
protocol: biochemical
Format: biochemical
outcomeMeasure: IC50
Write down the value, and be sure its unit follows.

Item: NNC(=O)Cc1c[nH]c2ccccc12 | IC50: 152 µM

* * *

measuredOn: AChE (Homo sapiens)
Construct: purchased Sigma Inc
protocol: biochemical
Assay type: biochemical
experimentalParameters: 0.5 mM test compound; mean with SEM; read-out: AChE Inhibition, Inhibition (%) at 0.5 mM
outcomeMeasure: inhibition at 500 µM (%)
Reply with just the number (in %).

Examples with their reported inhibition at 500 µM follow.
itemSmiles: O=C(Cc1c[nH]c2ccccc12)NNS(=O)(=O)c1ccc([N+](=O)[O-])cc1
unitsLabel: %
inhibition at 500 µM: 58.6

itemSmiles: C/C(=N\NC(=O)Cc1c[nH]c2ccccc12)c1ccccc1
unitsLabel: %
inhibition at 500 µM: 66.9

itemSmiles: O=C(Cc1c[nH]c2ccccc12)NNC(=O)C(F)(F)F
unitsLabel: %
inhibition at 500 µM: 75.2

itemSmiles: O=C(Cc1c[nH]c2ccccc12)N/N=C/c1ccc(Cl)cc1
unitsLabel: %
inhibition at 500 µM: 75.8

itemSmiles: Cc1ccc(/C=N/NC(=O)Cc2c[nH]c3ccccc23)cc1
unitsLabel: %
inhibition at 500 µM: 79.5

itemSmiles: O=C(Cc1c[nH]c2ccccc12)N/N=C/c1ccccc1
unitsLabel: %
inhibition at 500 µM: 63.1

Item: COC(=O)Cc1c[nH]c2ccccc12 | inhibition at 500 µM: 70.6

Item: O=C(Cc1c[nH]c2ccccc12)NNS(=O)(=O)c1ccccc1[N+](=O)[O-] | inhibition at 500 µM: 46.4

Item: O=C(Cc1c[nH]c2ccccc12)NNS(=O)(=O)c1cccc([N+](=O)[O-])c1 | inhibition at 500 µM: 56.2

* * *

measuredOn: AChE (Homo sapiens, UniProt P22303)
Construct: purchased Sigma Inc
protocol: biochemical
Assay type: biochemical
experimentalParameters: mean with SEM; read-out: AChE Inhibition, IC50
Cut-off 100 µM on IC50: below means yes, at or above means no.

itemSmiles: O=C(Cc1c[nH]c2ccccc12)NNS(=O)(=O)c1ccc(Br)cc1
assignedLabel: yes

itemSmiles: Cc1ccc(S(=O)(=O)NNC(=O)Cc2c[nH]c3ccccc23)cc1
assignedLabel: no

itemSmiles: COc1ccc(/C=N/NC(=O)Cc2c[nH]c3ccccc23)cc1
assignedLabel: no

itemSmiles: COC(=O)Cc1c[nH]c2ccccc12
assignedLabel: no

itemSmiles: O=C(Cc1c[nH]c2ccccc12)N/N=C/c1ccc(Cl)cc1
assignedLabel: no

Challenge: Does CC(=O)NNC(=O)Cc1c[nH]c2ccccc12 have IC50 strictly under 100 µM?
Response given: no

Challenge: Does O=C(Cc1c[nH]c2ccccc12)N/N=C/c1ccccc1 have IC50 strictly under 100 µM?
Response given: no

Challenge: Does O=C(Cc1c[nH]c2ccccc12)NN=C(c1ccccc1)c1ccccc1 have IC50 strictly under 100 µM?
Response given: yes

Challenge: Does C/C(=N\NC(=O)Cc1c[nH]c2ccccc12)c1ccccc1 have IC50 strictly under 100 µM?
Response given: no

Challenge: Does O=C(Cc1c[nH]c2ccccc12)NNC(=O)C(F)(F)F have IC50 strictly under 100 µM?
Response given: no

* * *

measuredOn: BChE (Homo sapiens, UniProt P06276)
Construct: purchased Sigma Inc
Sequence (P06276 29-602): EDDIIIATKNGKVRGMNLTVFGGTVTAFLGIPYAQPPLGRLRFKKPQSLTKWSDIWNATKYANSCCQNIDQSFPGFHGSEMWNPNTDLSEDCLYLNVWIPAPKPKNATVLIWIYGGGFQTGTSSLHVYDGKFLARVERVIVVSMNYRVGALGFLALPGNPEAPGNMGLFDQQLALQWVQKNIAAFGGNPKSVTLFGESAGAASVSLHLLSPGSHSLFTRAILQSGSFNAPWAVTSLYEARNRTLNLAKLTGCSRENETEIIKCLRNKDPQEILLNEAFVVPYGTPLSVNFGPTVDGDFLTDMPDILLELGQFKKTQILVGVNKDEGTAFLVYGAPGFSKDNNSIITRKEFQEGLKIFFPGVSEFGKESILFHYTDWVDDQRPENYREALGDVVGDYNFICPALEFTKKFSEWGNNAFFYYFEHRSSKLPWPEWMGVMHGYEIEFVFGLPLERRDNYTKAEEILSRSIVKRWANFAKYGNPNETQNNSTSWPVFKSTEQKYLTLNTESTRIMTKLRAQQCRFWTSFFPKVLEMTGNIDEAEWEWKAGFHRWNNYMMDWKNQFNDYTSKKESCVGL
protocol: BChE inhibition assay (Ellman method with slight modifications)
Type: biochemical
experimentalParameters: 0.5 mM test compound; mean with SEM; read-out: BChE Inhibition, Inhibition (%) at 0.5 mM
Please mark 1.0 if the recorded inhibition at 500 µM is equal to or greater than 50%, and 0.0 if it falls below.

compound: O=C(Cc1c[nH]c2ccccc12)NNC(=O)C(F)(F)F [Compound 5b]
assignedLabel: 1.0
//
compound: O=C(Cc1c[nH]c2ccccc12)NNS(=O)(=O)c1ccccc1[N+](=O)[O-] [Compound 6b]
assignedLabel: 0.0
//
compound: C/C(=N\NC(=O)Cc1c[nH]c2ccccc12)c1ccccc1 [Compound 4e]
assignedLabel: 1.0
//
compound: O=C(Cc1c[nH]c2ccccc12)N/N=C/c1ccccc1O [Compound 4b]
assignedLabel: 0.0
//
compound: O=C(Cc1c[nH]c2ccccc12)N/N=C/c1ccccc1 [Compound 4a]
assignedLabel: 1.0

Now consider the entry below.
Challenge: Can O=C(Cc1c[nH]c2ccccc12)NNS(=O)(=O)c1ccc(Br)cc1 [Compound 6e] be said to have inhibition at 500 µM at or above 50%?
Response given: 1.0

* * *

measuredOn: BChE (Homo sapiens, UniProt P06276)
Construct: purchased Sigma Inc
protocol: BChE inhibition assay (Ellman method with slight modifications)
Assay type: biochemical
experimentalParameters: mean with SEM; read-out: BChE Inhibition, IC50
outcomeMeasure: IC50 (µM)
Reply with just the number (in µM).

Examples with their reported IC50 follow.
compound: O=C(Cc1c[nH]c2ccccc12)NN=C(c1ccccc1)c1ccccc1 [Compound 4f]
IC50, µM: 59.8
//
compound: O=C(Cc1c[nH]c2ccccc12)NNS(=O)(=O)c1cccc([N+](=O)[O-])c1 [Compound 6c]
IC50, µM: 78.5
//
compound: COC(=O)Cc1c[nH]c2ccccc12 [Compound 2]
IC50, µM: 184

Item: CC(=O)NNC(=O)Cc1c[nH]c2ccccc12 [Compound 5a] | IC50: 55.2
